biological target: UniProtKB P00698; experiment: 1H NMR titration, Trp imino CSP (W62, W111, W123), […] fit
Sequence (P00698 19-147): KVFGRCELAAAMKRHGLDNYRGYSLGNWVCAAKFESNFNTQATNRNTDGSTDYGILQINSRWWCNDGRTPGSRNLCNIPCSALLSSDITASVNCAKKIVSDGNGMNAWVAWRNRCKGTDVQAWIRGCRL
measure-name: Kd

Q. Item O=P(O)(O)OP(=O)(O)OP(=O)(O)O [TPP] has what recorded Kd?
A. ~1 mM

Value source: paper PMC9853864
